System: bromegrass, down
experimental.protocol: Test D postemergence
Type: in vivo, Bromus tectorum
assay.context: 125 g ai/ha, scale 0 to 100
For each record, write down the corresponding Plant response rating: Bromegrass, Down.
Would you mind answering with just the numeric figure?

Entry FC(F)(F)COc1nc(-c2ccccc2)nn1Cc1ccnc(C(F)(F)F)c1 : reported Plant response rating: Bromegrass, Down = ? 50

Requested read-out: Plant response rating: Bromegrass, Down. Entry: COc1nc(-c2ccc(Cl)cc2)nn1Cc1ccnc(C(F)(F)F)c1 35

// query Plant response rating: Bromegrass, Down value for entry CCc1nc(-c2ccc(C(F)(F)F)cc2)nn1Cc1ccnc(C(F)(F)F)c1 25

Any idea what Plant response rating: Bromegrass, Down was measured for Fc1ccc(-c2nc(OCC(F)(F)F)n(Cc3ccnc(C(F)(F)F)c3)n2)cc1 ? 65

---

Test system: soybean
experimental.protocol: Test C postemergence
Assay type: in vivo, Glycine max
assay.context: 62 g ai/ha
recorded.metric: Plant response rating (scale of 0 to 100 where 0 is no effect and 100 is complete control)
Note: the reply should be a number with no unit written.

Entry CCCOc1nc(-c2ccccc2)nn1Cc1ccnc(C(F)(F)F)c1 : reported Plant response rating (scale of 0 to 100 where 0 is no effect and 100 is complete control) = ? 35

Need Plant response rating (scale of 0 to 100 where 0 is no effect and 100 is complete control), item CCc1nc(-c2ccc(C(F)(F)F)cc2)nn1Cc1ccnc(C(F)(F)F)c1 35

Which measured Plant response rating (scale of 0 to 100 where 0 is no effect and 100 is complete control) value corresponds to CCOc1nc(-c2ccc(Cl)cc2)nn1Cc1ccnc(C(F)(F)F)c1 ? 65

I would be grateful if you could share the reported Plant response rating (scale of 0 to 100 where 0 is no effect and 100 is complete control) for COc1nc(-c2ccc(Cl)cc2)nn1Cc1ccnc(C(F)(F)F)c1 . 70

I'd like to know its Plant response rating (scale of 0 to 100 where 0 is no effect and 100 is complete control). The compound in question is FC(F)(F)COc1nc(-c2ccc(Cl)cc2)nn1Cc1ccnc(C(F)(F)F)c1 65

// lookup Plant response rating (scale of 0 to 100 where 0 is no effect and 100 is complete control) for FC(F)(F)COc1nc(-c2ccccc2)nn1Cc1ccnc(C(F)(F)F)c1 40

---

Consider the following compounds; for each one, report its Plant response rating, Blackgrass.
Tested on: blackgrass
experimental.protocol: Test A postemergence
Format: in vivo, Alopecurus myosuroides
assay.context: 31 g ai/ha, 0 to 100 scale (0 no effect, 100 complete control), approx. 10 d
Number, no unit, nothing else.

Please give the measured Plant response rating, Blackgrass for this compound: CCCOc1nc(-c2ccc(C(F)(F)F)cc2)nn1Cc1ccnc(C(F)(F)F)c1 [Compound 41] 20

So what's the measured Plant response rating, Blackgrass for this one? COc1nc(-c2ccc(C(F)(F)F)cc2)nn1Cc1ccnc(C(F)(F)F)c1 [Compound 25] 10

Fill blank: measured Plant response rating, Blackgrass of the compound CCOc1nc(-c2ccc(Cl)cc2)nn1Cc1ccnc(C(F)(F)F)c1 [Compound 26] is ____. 30

What value of Plant response rating, Blackgrass has been reported for the following compound? CCOc1nc(-c2ccc(C(F)(F)F)cc2)nn1Cc1ccnc(C(F)(F)F)c1 [Compound 35] 30

---

Tested on: crabgrass, large
experimental.protocol: Test C preemergence
Type: in vivo, Digitaria sanguinalis
assay.context: Preemergence, 31 g ai/ha, visual rating after 13 to 15 d
I'd be grateful if you could share measured Crabgrass, Large plant response rating (0 to 100) for these entries.
Output spec: single numeric token, no unit.

Sample Fc1ccc(-c2nc(OCC(F)(F)F)n(Cc3ccnc(C(F)(F)F)c3)n2)cc1 — what was its Crabgrass, Large plant response rating (0 to 100)? 98

Crabgrass, Large plant response rating (0 to 100) lookup needed for CCc1nc(-c2ccc(C(F)(F)F)cc2)nn1Cc1ccnc(C(F)(F)F)c1 , thanks. 98

Which Crabgrass, Large plant response rating (0 to 100) value is on record for CCOc1nc(-c2ccccc2)nn1Cc1ccnc(C(F)(F)F)c1 ? 100

For the compound shown here, CCCc1nc(-c2ccc(F)cc2)nn1Cc1ccnc(C(F)(F)F)c1 , give the reported Crabgrass, Large plant response rating (0 to 100). 100

---

Can you tell me Plant response rating, Velvetleaf for the items I'm about to list?
Tested on: velvetleaf
experimental.protocol: Test A preemergence
Assay type: in vivo, Abutilon theophrasti
assay.context: 125 g ai/ha, 0 to 100 scale (0 no effect, 100 complete control)
// no unit string in output, number only

Fill in the blank: the reported Plant response rating, Velvetleaf of CCCc1nc(-c2ccc(Cl)cc2)nn1Cc1ccnc(C(F)(F)F)c1 [Compound 22] is ____. 20

Given the entry CCc1nc(-c2cccc(C(F)(F)F)c2)nn1Cc1ccnc(C(F)(F)F)c1 [Compound 11] , report its measured Plant response rating, Velvetleaf. 0

Which Plant response rating, Velvetleaf is reported for this compound? CCCn1nc(-c2ccc(F)cc2)nc1C(=O)c1ccnc(C(F)(F)F)c1 [Compound 20] 0

Could you tell me which Plant response rating, Velvetleaf is on file for CCn1nc(-c2ccc(F)cc2)nc1Cc1ccnc(C(F)(F)F)c1 [Compound 18] ? 10

Would you mind telling me what Plant response rating, Velvetleaf value was observed for CCc1nc(-c2ccc(F)cc2)nn1Cc1ccnc(C(F)(F)F)c1 [Compound 2] ? 0

---

Test system: nutsedge, yellow
experimental.protocol: Test C postemergence
Assay type: in vivo, Cyperus esculentus
assay.context: 31 g ai/ha
I'd appreciate it if you could supply Plant response rating (scale of 0 to 100 where 0 is no effect and 100 is complete control) values for the items below.
In your answer, state the number alone without any accompanying words.

Data request, read-out Plant response rating (scale of 0 to 100 where 0 is no effect and 100 is complete control), for CCCc1nc(-c2ccc(F)cc2)nn1Cc1ccnc(C(F)(F)F)c1 5

Consider the molecule shown here: COc1nc(-c2ccccc2)nn1Cc1ccnc(C(F)(F)F)c1 What is its recorded Plant response rating (scale of 0 to 100 where 0 is no effect and 100 is complete control)? 10

Field request: Plant response rating (scale of 0 to 100 where 0 is no effect and 100 is complete control) | item: CCOc1nc(-c2ccccc2)nn1Cc1ccnc(C(F)(F)F)c1 5

Would you kindly share the measured Plant response rating (scale of 0 to 100 where 0 is no effect and 100 is complete control) for Fc1ccc(-c2nc(OCC(F)(F)F)n(Cc3ccnc(C(F)(F)F)c3)n2)cc1 ? 5

Which Plant response rating (scale of 0 to 100 where 0 is no effect and 100 is complete control) value belongs to CCc1nc(-c2ccc(C(F)(F)F)cc2)nn1Cc1ccnc(C(F)(F)F)c1 ? 5

What value of Plant response rating (scale of 0 to 100 where 0 is no effect and 100 is complete control) has been reported for the following molecule? CCOc1nc(-c2ccc(F)cc2)nn1Cc1ccnc(C(F)(F)F)c1 5

---

Tested on: wheat (winter wheat)
experimental.protocol: Test C preemergence
Format: in vivo, Triticum aestivum
assay.context: Wheat, preemergence, 250 g ai/ha
recorded.metric: Plant response rating (scale of 0 to 100 where 0 is no effect and 100 is complete control)
Please reply with the number alone, leaving off any unit.

What does the data say about its Plant response rating (scale of 0 to 100 where 0 is no effect and 100 is complete control)? Entry: Fc1ccc(-c2nc(OCC(F)(F)F)n(Cc3ccnc(C(F)(F)F)c3)n2)cc1 35

// Plant response rating (scale of 0 to 100 where 0 is no effect and 100 is complete control) lookup, key: FC(F)(F)COc1nc(-c2ccc(Cl)cc2)nn1Cc1ccnc(C(F)(F)F)c1 35

# lookup: Plant response rating (scale of 0 to 100 where 0 is no effect and 100 is complete control) of FC(F)(F)COc1nc(-c2ccccc2)nn1Cc1ccnc(C(F)(F)F)c1 5

I have this molecule here, CCOc1nc(-c2ccccc2)nn1Cc1ccnc(C(F)(F)F)c1 , and I need its recorded Plant response rating (scale of 0 to 100 where 0 is no effect and 100 is complete control). 60

---

Tested on: johnsongrass
experimental.protocol: Test C preemergence
Format: in vivo, Sorghum halepense
assay.context: Preemergence, 31 g ai/ha, visual rating after 13 to 15 d
Binary call on Johnsongrass plant response rating (0 to 100): Condition met from 40 upward, Condition not met beneath that.

# bool: Johnsongrass plant response rating (0 to 100) of CCOc1nc(-c2ccc(C(F)(F)F)cc2)nn1Cc1ccnc(C(F)(F)F)c1 [Compound 35] >= 40 Condition met

Textbook exercise: given the entry CCOc1nc(-c2ccc(F)cc2)nn1Cc1ccnc(C(F)(F)F)c1 [Compound 8] , state whether its Johnsongrass plant response rating (0 to 100) is greater than or equal to 40. Condition met

Kindly determine if Johnsongrass plant response rating (0 to 100) recorded for COc1nc(-c2ccccc2)nn1Cc1ccnc(C(F)(F)F)c1 [Compound 32] is above or exactly 40. Condition not met

hey, is Johnsongrass plant response rating (0 to 100) for this one >= 40? COc1nc(-c2ccc(F)cc2)nn1Cc1ccnc(C(F)(F)F)c1 [Compound 9] Condition not met

Hi, just wondering whether Fc1ccc(-c2nc(OCC(F)(F)F)n(Cc3ccnc(C(F)(F)F)c3)n2)cc1 [Compound 30] shows Johnsongrass plant response rating (0 to 100) of 40 or higher. Condition not met

Cited source: patent US10681909B2
